- System: symmetric dimethylation of arginine (SDMA) of PRMT5 substrates in MCF-7 cells
- test: PRMT5 Cell Target Engagement (TE) Assay
- Type: cell-based
- reported.conditions: 3 days treatment, SDMA high content imaging
pEC50: −log10 of the molar value.
Lab note: compare pEC50 against 6. Equal or greater, write YES. Smaller, write NO.

Please review the entries below; each comes with its answer.
Prompt: Please tell me: is the molecule COCCN1CC(C2CC2)Cn2cc(C(=O)N3CC[C@]4(Cc5ccccc5CN4)[C@H](O)C3)nc21 (single isomer, unassigned) [Example 144] at or over 6 in terms of pEC50?
Response: YES

Prompt: Is it the case that N#CC1(c2cnc3nc(C(=O)N4CC[C@]5(Cc6ccccc6CN5)[C@H](O)C4)cn3c2)CC12CC2 (single isomer, unassigned) [Example 82] has pEC50 reaching or exceeding 6?
Response: YES

Prompt: Kindly determine if pEC50 recorded for COC(C)c1cc(Br)c2nc(C(=O)N3CC[C@]4(Cc5ccccc5CN4)[C@H](O)C3)cn2c1 (single isomer, unassigned) [Example 61] is above or exactly 6.
Response: YES

Prompt: Has O=C(c1cn2c(n1)C(C1CCOC1)CC(C(F)(F)F)C2)N1CC[C@]2(Cc3ccccc3CN2)[C@H](O)C1 (single isomer, unassigned) [Example 161] a recorded pEC50 greater than or equal to 6?
Response: YES

Others:
Prompt: Is reported pEC50 greater than or equal to 6 here: CN1CC(C2CC2)Cn2cc(C(=O)N3CC[C@]4(Cc5ccccc5CN4)[C@H](O)C3)nc21 (single isomer, unassigned) [Example 142]
Response: YES

Prompt: Is the recorded value of pEC50 equal to or greater than 6 for this molecule? O=C(c1cn2c(n1)C(C1CCOC1)CC(C(F)(F)F)C2)N1CC[C@]2(Cc3ccccc3CN2)[C@H](O)C1 (single isomer, unassigned) [Example 162]
Response: NO

----------
- Tested on: symmetric dimethylation of arginine (SDMA) of PRMT5 substrates in MCF-7 cells
- test: PRMT5 Cell Target Engagement (TE) Assay
- Type: cell-based
- reported.conditions: 3 days treatment, SDMA high content imaging
measurement.name: pEC50
Answers are plain numbers, as −log10 of the molar value.

Prompt: Given the entry CCOc1cc(C(=O)N2C3CCC2COC3)ccc1C(=O)N1CCC2(Cc3ccccc3CN2)C(O)C1 (single isomer, unassigned) [Example 89] , report its measured pEC50.
Response: 8.16

Prompt: Can you look up the measured pEC50 of CCOc1cc(C(=O)N2C3CCC2COC3)ccc1C(=O)N1CCC2(Cc3ccccc3CN2)C(O)C1 (single isomer, unassigned) [Example 87] for me?
Response: 8.04

Further cases:
Prompt: Quick check: pEC50 of CC1(C)CC1(C#N)c1cnc2nc(C(=O)N3CC[C@]4(Cc5ccccc5CN4)[C@H](O)C3)cn2c1 (single isomer, unassigned) [Example 147] ?
Response: 8.64

----------
- measured.target: Full-length (FL)-PRMT5-MEP50 enzyme complex (Homo sapiens, UniProt O14744)
- Construct: Full-length (FL)-PRMT5-MEP50 enzyme complex (recombinant proteins from baculovirus-transfected Sf21 cells: FL-PRMT5; MW=73837 kDa and FL-MEP50; MW=38614); made in house; host or cells: baculovirus-transfected Sf21 cells
- Sequence (O14744 whole entry): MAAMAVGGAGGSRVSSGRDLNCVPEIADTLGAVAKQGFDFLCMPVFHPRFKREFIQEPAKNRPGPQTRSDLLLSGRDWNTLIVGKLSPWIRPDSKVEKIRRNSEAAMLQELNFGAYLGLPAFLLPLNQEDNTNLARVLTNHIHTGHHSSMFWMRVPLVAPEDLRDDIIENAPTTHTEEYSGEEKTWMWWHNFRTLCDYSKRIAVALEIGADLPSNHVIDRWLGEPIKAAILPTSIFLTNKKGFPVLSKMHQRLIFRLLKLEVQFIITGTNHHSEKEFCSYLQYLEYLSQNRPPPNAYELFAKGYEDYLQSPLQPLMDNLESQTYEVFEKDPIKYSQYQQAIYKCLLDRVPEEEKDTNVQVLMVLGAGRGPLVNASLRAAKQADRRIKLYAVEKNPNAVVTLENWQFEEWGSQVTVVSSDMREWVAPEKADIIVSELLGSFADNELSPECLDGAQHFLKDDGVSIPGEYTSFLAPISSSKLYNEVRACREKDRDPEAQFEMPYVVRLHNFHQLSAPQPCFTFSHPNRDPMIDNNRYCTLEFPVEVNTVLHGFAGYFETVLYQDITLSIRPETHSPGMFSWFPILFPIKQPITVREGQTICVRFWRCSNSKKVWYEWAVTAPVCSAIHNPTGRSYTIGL
- Sequence (Q9BQA1 whole entry partner): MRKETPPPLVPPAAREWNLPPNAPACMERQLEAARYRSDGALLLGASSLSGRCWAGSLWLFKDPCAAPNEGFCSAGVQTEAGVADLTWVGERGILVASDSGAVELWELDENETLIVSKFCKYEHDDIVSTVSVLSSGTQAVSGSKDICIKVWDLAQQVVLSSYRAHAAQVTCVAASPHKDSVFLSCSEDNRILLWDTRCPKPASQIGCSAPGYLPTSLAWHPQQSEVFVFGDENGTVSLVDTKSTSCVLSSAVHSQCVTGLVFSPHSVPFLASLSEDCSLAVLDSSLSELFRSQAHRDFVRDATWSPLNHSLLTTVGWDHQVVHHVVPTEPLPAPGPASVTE
- test: PRMT5-MEP50 Enzyme Methylation Assay (Version A)
- Format: biochemical
- reported.conditions: second value of 7 parameter biphasic fit; read-out: Enzyme Methylation Assay Version A (EC50 2)
Hi there, I'd appreciate the recorded pEC50 for every entry that follows.
Answers are plain numbers, as −log10 of the molar value.

Worked examples, 5 compounds total:
Prompt: # get_value(readout='pEC50', item= O=C(c1cn2cc(F)cc(Br)c2n1)N1CC[C@]2(Cc3ccccc3CN2)[C@H](O)C1 )
Response: 6.16

Prompt: Which pEC50 reading was recorded for the compound O=C(c1cn2cccc(F)c2n1)N1CC[C@]2(Cc3ccccc3CN2)[C@H](O)C1 ?
Response: 4.79

Prompt: Given the entry Cc1cn2cc(C(=O)N3CC[C@]4(Cc5ccccc5CN4)[C@H](O)C3)nc2s1 , report its measured pEC50.
Response: 6.20

Prompt: What value of pEC50 has been reported for the following compound? Cc1cc(Br)c2nc(C(=O)N3CC[C@]4(Cc5ccccc5CN4)[C@H](O)C3)cn2c1
Response: 6.46

Prompt: Suppose we examine the compound COC(C)(C)c1ccc2nc(C(=O)N3CC[C@]4(Cc5ccccc5CN4)[C@H](O)C3)cn2c1 (stereo in doubt) ; what pEC50 value has been reported?
Response: 6.86

Hi! Can you tell me pEC50 for each of these compounds?
1. N#Cc1ccc2nc(C(=O)N3CC[C@]4(Cc5ccccc5CN4)[C@H](O)C3)cn2c1
2. Cc1cc(C)n2nc(C(=O)N3CC[C@]4(Cc5ccccc5CN4)[C@H](O)C3)nc2n1
3. COCC1CC(C)Cn2cc(C(=O)N3CC[C@]4(Cc5ccccc5CN4)[C@H](O)C3)nc21 (single isomer, unassigned) [Example 159]
4. O=C(c1cn2c(n1)CCC(C(F)(F)F)C2)N1CC[C@]2(Cc3ccccc3CN2)[C@H](O)C1 (some centres unmarked)

Response:
1: 5.55; 2: 4.07; 3: 4.65; 4: 5.57

State recorded pEC50 for all listed compounds.
1. Cc1cn2cc(C(=O)N3CC[C@]4(Cc5ccccc5CN4)[C@H](O)C3)nc2c(Cl)n1
2. COc1ccc2nc(C(=O)N3CC[C@]4(Cc5ccccc5CN4)[C@H](O)C3)cn2c1
3. CC(O)c1cc(C(F)(F)F)cn2cc(C(=O)N3CC[C@]4(Cc5ccccc5CN4)[C@H](O)C3)nc12 (single isomer, unassigned) [Example 109]
4. CCC1Oc2ccc(C(=O)N3CC[C@]4(Cc5ccccc5CN4)[C@H](O)C3)cc2NC1=O (single isomer, unassigned) [Example 105]
5. CNc1nc(C)ccc1C(=O)N1CC[C@]2(Cc3ccccc3CN2)[C@H](O)C1
6. Cc1ccc(C(=O)N2CC[C@]3(Cc4ccccc4CN3)[C@H](O)C2)c(Cl)n1

Response:
5.15
5.84
6.90
6.84
4.80
4.84

Give pEC50 for each listed item.
1. O=C(c1cn2cc(Br)nc(OC3CCOC3)c2n1)N1CC[C@]2(Cc3ccccc3CN2)[C@H](O)C1 (single isomer, unassigned) [Example 98]
2. O=C(c1ccnc(-n2cnnn2)c1)N1CC[C@]2(Cc3ccccc3CN2)[C@H](O)C1
3. O=C(c1cn2cc(Br)cc(N3CCCC3=O)c2n1)N1CC[C@]2(Cc3ccccc3CN2)[C@H](O)C1
4. Cc1cc(C(F)(F)F)cn2cc(C(=O)N3CC[C@]4(Cc5ccccc5CN4)[C@H](O)C3)nc12
5. O=C(c1cn2cc(Br)cc(CO)c2n1)N1CC[C@]2(Cc3ccccc3CN2)[C@H](O)C1

Response:
1: 6.98; 2: 4.57; 3: 4.24; 4: 6.61; 5: 6.66
